# TARGET_DESC: T1, UNK ZnF1-3 (human, UniProt Q9C0B0 31-174)
# T1 sequence: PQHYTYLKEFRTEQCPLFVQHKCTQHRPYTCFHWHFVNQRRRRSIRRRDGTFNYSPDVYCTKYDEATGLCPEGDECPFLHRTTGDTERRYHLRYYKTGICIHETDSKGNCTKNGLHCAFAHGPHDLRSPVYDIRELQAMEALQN
# ASSAY: nsRBNS (natural sequence RNA bind-n-seq); RBNS binding buffer (assumed for nsRBNS): 25 mM Tris pH 7.5, 150 mM KCl, 3 mM MgCl2, 0.01% Triton X-100, 500 ug/ml BSA, 20 U/ml SUPERase-In, 4 C; UNK is unkempt and MSI1 is Musashi-1; names of the RNAs are library labels; protein concentration not given here; high values mean tight binding
The full ranking holds about 24,000 sequences; the median of “enrichment r” is about 0.99, and the highest 2% start at about 3.7. The list comes from a sample in which the highest values are over-represented; it also holds close analogues and randomly drawn sequences.
Would you kindly list binding signal for each of these binders?
Answers are plain numbers, in enrichment R.

>>> observed("chr11:93905761:93905762:+_ENSMUSG00000020859_ENSMUST00000103168|mus_mus|motif|central (ssRNA) RNA: GGGAGUUCUACAGUCCGACGAUCCGCUGGCACCCCGGUAGAAAUAGAAAAGUGCACAAGCAGCAAAACAGAGAGAGAUACGGAGAUCGCAGAAUUAAUGACCACCGCCCCGCCAACAAAGCCAAACACAAACAGCAGCAUGCACAACAGAGGAUUGAGCAUCA")
2.32
>>> observed("chr3:41267201:41267202:+_ENSG00000168036_ENST00000349496|hu_mus|motif|central (ssRNA) RNA: GGGAGUUCUACAGUCCGACGAUCCAAGAAUUUCACGUUUGUUUUGUUGAGCAAAGCAACCAUUUUCUGCAGUCCACCAGCGGGGCGCACUGCCAUUUUAGCUCCUUCCUGAUGGAGCAGGAGAUUAUGCAGUGUCGUGAUGGCCAACAGAGGAUUGAGCAUCA")
0.539
>>> observed("chr1:130485734:130485735:-_ENSMUSG00000045382_ENSMUST00000052172|mus_hu|FALSE|FALSE (ssRNA) RNA: GGGAGUUCUACAGUCCGACGAUCGAUGAAGGAGUCGAUGCUGAUCCCAAUGUAGUAAGGCAGCCAACAGGCGAAGAAAGCCAGGAUGAGGAUGACUGUGGUCUUGAGGGCCUUGCGCUUCUGGUGGCCCUUGGAGUGUGACAGCAACAGAGGAUUGAGCAUCA")
1.35
>>> observed("chr7:112757510:112757511:-_ENSG00000214194_ENST00000397764|hu_mus|FALSE|FALSE (ssRNA) RNA: GGGAGUUCUACAGUCCGACGAUCCUUUCUUGCGUAUAUCCCCAAGCAAGCACAGAUGCCGGUAAUGCUGAGAACCACACCUAAUAAGAGUGCAAUCGCGUCUCCAGCUUCCACUGCUUCAACAACAGGCAGGAUCAAAAGCAGCAACAGAGGAUUGAGCAUCA")
1.38

Q: Can you share its binding signal? I mean this binder: chr15:40462788:40462789:+_ENSG00000156970_ENST00000287598|hu_mus|FALSE|FALSE (ssRNA) RNA: GGGAGUUCUACAGUCCGACGAUCAAAGCGGGGGUCAUUAUAAUAGCGCGUCUCUCCUUGGAGUGCUUCUAUCGCUCUCUCCACUAACGCUGACAUGUUACUCUCUUUCCCCCCUUGAGGGUAGUUCUGUUCUGUCCAAUUAAUCAACAGAGGAUUGAGCAUCA
Ans: 0.581

Reference source: paper PMC12136788
